Source listed as ChEMBL document CHEMBL1138087.

test system: Human immunodeficiency virus 1; test: Antiviral activity against wild type HIV1 virus; assay type: functional, organism-based
value kind: EC50

Q: Give Human immunodeficiency virus 1 EC50 for COc1ccc([C@H]2CC(=O)N(c3cccc(NS(=O)(=O)c4ccccc4C)c3)C2)cc1OC1CCCC1
A: 24 nM

Q: Fill in the recorded EC50 for this molecule, with Human immunodeficiency virus 1 as test system: COc1ccc([C@H]2CC(=O)N(c3cccc(NC(=O)C(=O)c4cccc(N(C)C)c4)c3)C2)cc1OC1CCCC1
A: 124 nM

Q: // fetch Human immunodeficiency virus 1 EC50 for COc1ccc([C@H]2CC(=O)N(c3cccc(N(C)C)c3)C2)cc1OC1CCCC1
A: 4710 nM

Q: // map COc1ccc([C@H]2CC(=O)N(c3cccc(C#N)c3)C2)cc1OC1CCCC1 to recorded EC50 (system: Human immunodeficiency virus 1)
A: 520 nM

* * *

system: Human immunodeficiency virus 1; experiment: Selectivity for wild type HIV1 virus over HIV1 L100I mutant; format: functional
Kindly return t if reported Selectivity ratio is no lower than 0.7; return f if it is lower.

COc1ccc([C@H]2CC(=O)N(c3cccc(NS(=O)(=O)c4c(F)cccc4F)c3)C2)cc1OC1CCCC1 t

Q: Kindly determine if Selectivity ratio recorded for COc1ccc([C@H]2CC(=O)N(c3cccc(NS(=O)(=O)c4cccc(C)c4)c3)C2)cc1OC1CCCC1 is above or exactly 0.7.
A: f

Q: Quick check, Selectivity ratio >= 0.7? COc1ccc([C@H]2CC(=O)N(c3cccc(NS(=O)(=O)c4ccccc4C)c3)C2)cc1OC1CCCC1
A: f

Q: Is reported Selectivity ratio greater than or equal to 0.7 here: Cc1ccnc2c1NC(=O)c1cccnc1N2C1CC1
A: t
